Origin of values: PubChem BioAssay AID463

# protocol: cytotoxicity toward Jurkat T cells, primary screen, cytotoxicity control, cell-based, Jurkat E6.1, 60K MLSMR library (AID 463)
# settings: Jurkat E6.1 viability, ATP luminescence, 48 h; at 4 µM
The whole screen tested about 56,000 compounds, of which about 710 (1.3%) were called active.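 The calls were made as follows: active = inhibition above the mean inhibition of all tested compounds plus 3 SD (cut at about 28% in these data); inactive = the rest.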 Only a selection was taken, and actives are over-represented in it overall.
In this exercise, the only acceptable responses are active, inactive

Example entries and their recorded answers appear below.
{"compound": "Cc1cc(C)nc(NC(=O)Nc2ccccc2C(F)(F)F)n1", "answer_label": "active"}
{"compound": "CNC(=O)CSc1nnnn1-c1ccc(C)cc1C", "answer_label": "inactive"}
{"compound": "CCOC(=O)CNC(=O)CSc1nnnn1-c1cc(C)ccc1C", "answer_label": "inactive"}
{"compound": "Cn1c(CN2CCOCC2)nc2cc(NC(=O)c3ccc(Cl)cc3)ccc21", "answer_label": "active"}
{"compound": "Nc1nonc1-c1nc2ccccc2n1CCC(=O)O", "answer_label": "inactive"}

Hey, what did the test say about Cn1c(NC(=O)c2ccc3c(c2)OCO3)cc(=O)n(C)c1=O ?
inactive

Hey, what did the test say about C=CCn1c(=N)n(CC(O)COc2ccc(OC)cc2)c2ccccc21 (stereo not given) ?
inactive

Hey, what did the test say about COc1cc(NS(=O)(=O)c2ccc(NC(C)=O)cc2)cc(OC)c1 ?
active

Hey, what did the test say about O=S(=O)(NCC1CCCO1)c1ccc2ccccc2c1 (stereo not given) ?
inactive

Hey, what did the test say about CCOc1cc(-c2noc(CCC(=O)N3CCOCC3)n2)ccc1OC ?
inactive

Hey, what did the test say about O=C(c1cccc(S(=O)(=O)N2CCOCC2)c1)N1CCOCC1 ?
inactive

Hey, what did the test say about CCOC(=O)c1c(-c2ccc(C)cc2C)csc1NC(=O)CSc1nnnn1C ?
active
